target: UniProt:Q8ILY1; experiment: Fluorescence-based high-throughput DNA polymerase assay (molecular beacon), primary screen and dose-response; format: biochemical; conditions: DRC-2; 40'; concentration 2.5;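 note: compound concentration given in µM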
Sequence (Q8ILY1 entry or part of it): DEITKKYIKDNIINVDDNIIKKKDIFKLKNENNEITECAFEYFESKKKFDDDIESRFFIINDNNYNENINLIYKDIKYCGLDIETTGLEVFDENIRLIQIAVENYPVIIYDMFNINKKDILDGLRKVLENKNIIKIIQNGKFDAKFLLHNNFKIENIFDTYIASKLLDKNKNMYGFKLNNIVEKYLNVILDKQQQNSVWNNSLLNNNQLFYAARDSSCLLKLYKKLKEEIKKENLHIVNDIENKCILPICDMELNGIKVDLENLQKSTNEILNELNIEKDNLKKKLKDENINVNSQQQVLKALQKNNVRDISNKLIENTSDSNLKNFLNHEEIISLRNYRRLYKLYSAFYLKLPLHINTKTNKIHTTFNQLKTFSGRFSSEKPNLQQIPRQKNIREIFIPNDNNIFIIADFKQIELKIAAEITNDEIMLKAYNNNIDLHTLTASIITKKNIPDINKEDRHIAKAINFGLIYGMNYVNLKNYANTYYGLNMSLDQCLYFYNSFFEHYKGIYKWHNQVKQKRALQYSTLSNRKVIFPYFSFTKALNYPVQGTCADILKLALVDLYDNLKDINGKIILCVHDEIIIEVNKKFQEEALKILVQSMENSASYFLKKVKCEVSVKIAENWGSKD
Overview of recorded % inhibition Apol 40' for various compounds
Express your answer in %, writing the number without its unit.

Some entries whose results are on file:
COc1ccc(CNC(=O)Cn2nc3c(c2NC(=O)Cc2cccs2)CSC3)cc1
-0.881
O=C(Nc1cccc(C(=O)Nc2ccc(S(=O)(=O)[O-])c3cc(S(=O)(=O)[O-])cc(S(=O)(=O)[O-])c23)c1)Nc1cccc(C(=O)Nc2ccc(S(=O)(=O)[O-])c3cc(S(=O)(=O)[O-])cc(S(=O)(=O)[O-])c23)c1.[Na+].[Na+].[Na+].[Na+].[Na+].[Na+]
-11
O=c1[nH]c2ccc(Br)cc2c(-c2ccccc2)c1C1=NNC(c2ccco2)C1 (centres unmarked)
15
CC(=O)OCC1=C(C(=O)[O-])N2C(=O)[C@@H](NC(=O)Cc3cccs3)[C@H]2SC1.[Na+]
1.25
CC(=O)Nc1cc(C(=O)NC(C)C)c2ccc(C)nc2c1
8

// % inhibition Apol 40' value for `Nc1c(S(=O)(=O)O)cc(Nc2ccccc2)c2c1C(=O)c1ccccc1C2=O` : 1.87

The recorded % inhibition Apol 40' for entry `N#Cc1c(O)nc(N2CCCCC2)nc1-c1ccc2c(c1)OCO2` equals 13

For this compound ( `O=C(Nc1c2c(nn1-c1ccc(Oc3ccccc3)cc1)CSC2)c1ccco1` ), measured % inhibition Apol 40' is 9

Field % inhibition Apol 40' (entry `O=C(O)c1cc([N+](=O)[O-])c(N2CCN(c3cccc(C(F)(F)F)c3)CC2)c([N+](=O)[O-])c1` ) reads 10

Query `O=C1C(=Cc2ccccc2O)Oc2ccc(O)cc21` yields % inhibition Apol 40' of 0.208

Input `Cc1nn(CC(=O)NCCSCc2ccco2)c(C)c1Br` . Output % inhibition Apol 40': 7.41

// sample COc1ccc(C2CC(c3ccc(Cl)cc3Cl)Nc3nc(N)nn32)cc1OC (centres unmarked) , its % inhibition Apol 40' was 26

Looking up `O=C(O)c1cccc(N2N=C(C(F)(F)F)/C(=C/c3ccc(-c4ccccc4[N+](=O)[O-])o3)C2=O)c1` , I see its % inhibition Apol 40' listed as 23

Noted for `O=C1CCCC2=C1C(c1ccccn1)C1=C(CCCC1=O)O2` : its % inhibition Apol 40' reads 2.6
